Target: T1, 4H953-bH
T1 chain: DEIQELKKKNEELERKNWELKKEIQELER
Test: two-hybrid library CCNG1;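 further: natural log of median RNA to DNA barcode read ratio; higher means stronger binding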
Strictly below -0.6 in interaction score: true (1). Otherwise: false (0).

Answered cases to consult:
> print(dat)
                                     binder  classname
1  DEIQELKKKNEELERKNWELKKEIQELER [4H953-bH]  false (0)
2  DKNQELKKKNEELKRKIWELKKEIQELER [4H4073-bH]   true (1)
3  DKIQELKKEIEELKRKIWELKKENQELER [4H2667-bH]  false (0)
4  DEIQELEKEIEELKRKIWELKKKNQELKR [4H112-bH]  false (0)
5  DEIQELEKKIEELKRKNWELEKEIQELKR [4H370-bH]  false (0)

interaction score under -0.6? Item: DEIQELKKKIEELKRKNWELEKENQELER [4H883-bH]
true (1)

interaction score under -0.6? Item: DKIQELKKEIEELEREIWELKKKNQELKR [4H2576-bH]
false (0)

interaction score under -0.6? Item: DEIQELEKKNEELKREIWELKKEIQELER [4H457-bH]
true (1)

interaction score under -0.6? Item: DEIQELKKKIEELERENWELKKKIQELER [4H797-bH]
false (0)

interaction score under -0.6? Item: DEIQELKKKNEELERENWELEKKIQELKR [4H918-bH]
true (1)

interaction score under -0.6? Item: DEIQELKKEIEELERKNWELEKKNQELKR [4H568-bH]
true (1)

interaction score under -0.6? Item: DKIQELKKKNEELKREIWELEKEIQELKR [4H3010-bH]
false (0)

interaction score under -0.6? Item: DKNQQLKQEIQELEQKNQELEWKIQELKQ [4H3638-bN]
true (1)

interaction score under -0.6? Item: DKIQELKKENEELEREIWELKKKIQELKR [4H2702-bH]
false (0)

interaction score under -0.6? Item: DKNQELKKKIEELEREIWELKKKNQELER [4H3855-bH]
true (1)

interaction score under -0.6? Item: DEIQELKKKIEELEREIWELKKENQELKR [4H780-bH]
false (0)

interaction score under -0.6? Item: DKNQELKKEIEELERENWELEKKIQELKR [4H3606-bH]
true (1)

interaction score under -0.6? Item: DKNQELEKEIEELERKIWELEKKNQELKR [4H3112-bH]
true (1)

interaction score under -0.6? Item: DKIAQLKQENAELEQEIAELEWENAQLEQ [4H2691-bA]
false (0)

interaction score under -0.6? Item: DENQELEKENEELERKIWELKKEIQELER [4H1193-bH]
true (1)

interaction score under -0.6? Item: DKNQELEKEIEELKRKNWELEKKIQELER [4H3189-bH]
false (0)

interaction score under -0.6? Item: DKIQELKKENEELERKIWELKKEIQELER [4H2729-bH]
true (1)

interaction score under -0.6? Item: DEIQELEKENEELERKIWELKKEIQELKR [4H170-bH]
false (0)
